These entries and their values trace back to ChEMBL document CHEMBL5728770.

- target-under-test: Tyrosine-protein kinase BTK (Homo sapiens)
- Sequence (Q06187 whole entry): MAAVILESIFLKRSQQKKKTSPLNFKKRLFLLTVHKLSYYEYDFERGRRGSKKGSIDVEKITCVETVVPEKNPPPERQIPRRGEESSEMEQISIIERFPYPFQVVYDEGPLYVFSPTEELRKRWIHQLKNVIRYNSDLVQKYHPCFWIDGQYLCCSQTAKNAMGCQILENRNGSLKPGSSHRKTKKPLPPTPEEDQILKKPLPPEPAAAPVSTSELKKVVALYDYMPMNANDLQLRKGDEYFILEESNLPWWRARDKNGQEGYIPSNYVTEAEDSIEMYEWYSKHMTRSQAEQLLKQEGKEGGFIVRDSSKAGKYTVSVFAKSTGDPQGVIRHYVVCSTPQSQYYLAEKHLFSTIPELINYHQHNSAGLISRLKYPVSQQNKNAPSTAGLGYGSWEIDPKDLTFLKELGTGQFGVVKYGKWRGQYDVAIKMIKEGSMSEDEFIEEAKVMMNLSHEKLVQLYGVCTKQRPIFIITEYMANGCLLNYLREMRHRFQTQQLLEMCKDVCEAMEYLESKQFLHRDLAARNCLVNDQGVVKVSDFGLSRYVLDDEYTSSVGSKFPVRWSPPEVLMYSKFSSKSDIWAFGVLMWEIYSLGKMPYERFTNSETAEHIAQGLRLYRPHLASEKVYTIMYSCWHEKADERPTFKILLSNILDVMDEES
- assay-method-text: Enzymatic Activity Assay: A Caliper-based kinase assay (Caliper Life Sciences, Hopkinton, Mass.) was used to measure inhibition of BTK kinase activity of a compound of the present disclosure. Serial dilutions of test compounds were incubated with human recombinant BTK (0.5 nM), ATP (16 μM) and a phosphoacceptor peptide substrate FAM-GEEPLYWSFPAKKK-NH2 (1 μM) at room temperature for 3 h. The reaction was then terminated with EDTA, final concentration 20 mM and the phosphorylated reaction product was quantified on a Caliper Desktop Profiler (Caliper LabChip 3000). Percent inhibition was calculated for each compound dilution and the concentration that produced 50% inhibition was calculated.
readout-kind: pIC50
One number for each entry, as −log10 of the molar value.

Solved cases (2 shown):
Which measured pIC50 value corresponds to Cc1cc(-c2nn([C@@H]3CCCN(C(=O)C(C#N)=CC(C)(C)N4CCN(C5COC5)CC4)C3)c3ccnc(N)c23)ccc1Oc1ccccc1 ?
8.89

Given CN1CCN(C(C)(C)C=C(C#N)C(=O)N2CCC[C@@H](c3nc(-c4ccc(Oc5ccccc5)cc4F)c4c(N)nccn34)C2)CC1=O , state its recorded pIC50.
8.59

Next item in the queue.
Endpoint output: pIC50 of CC(C)(C=C(C#N)C(=O)N1CCC[C@@H](n2nc(-c3ccc(Oc4ccccc4)cc3F)c3c(N)ncnc32)C1)N1CCN(C2(C)COC2)CC1 . Value?
9.52
